FYI, the data here is from a melting point compilation (Tetko et al.; mined from patent text by program, amines drawn as free bases though some values may be those of a salt).

experimentalEndpoint: melting point

Kindly note the recorded melting point for `Nc1ccc(C(c2cccc(N)c2)(C(F)(F)F)C(F)(F)F)cc1` , which is 142 to 143 °C

Kindly note the recorded melting point for `CCOC(=O)C(C#N)=CNNc1ccc(C(F)(F)F)cc1[N+](=O)[O-]` , which is 163 to 164 °C

Kindly note the recorded melting point for `C(=CCON(Cc1ccccc1)Cc1ccccc1)CON(Cc1ccccc1)Cc1ccccc1` , which is 82 to 85 °C

###

Kindly state melting point for each of the entries shown.

Kindly note the recorded melting point for `Nc1c(C(=O)c2ccc(Cl)cc2)oc2ccccc12` , which is 202 to 204 °C

Kindly note the recorded melting point for `COc1ccc(Sc2ccc([N+](=O)[O-])cc2)c(Cl)c1Cl` , which is 236 to 237 °C

Kindly note the recorded melting point for `COc1ccc(NC(=O)CCCCCC(C)=O)cc1` , which is 106 to 107 °C

Kindly note the recorded melting point for `CCCc1nc2c(N)nc3ccccc3c2n1CCCC(=O)N1CCOCC1` , which is 200 to 202 °C

Kindly note the recorded melting point for `OCc1ccc2cc(CO)ccc2c1` , which is 171 to 172 °C

Kindly note the recorded melting point for `O=C(COc1ccccc1)Nc1c(Cl)ccc2nc(N3CC[C@@H](O)C3)ccc12` , which is 233 to 235 °C

Kindly note the recorded melting point for `CNC(=O)c1cc(-c2ccc(OC)cc2)nn(Cc2ccc(Cl)cc2Cl)c1=O` , which is 154 to 156 °C

Kindly note the recorded melting point for `CC(C)n1nc(C(=O)NCC2CCN(CC(=O)Nc3ccc(OCc4ccccc4)cc3)CC2)c2ccccc21` , which is 113 to 115 °C

Kindly note the recorded melting point for COc1cc2c(cc1OC)N(C(=O)OCc1ccccc1)C(C)C(=CO)C2=O (configuration not stated) , which is 106 to 110 °C

Kindly note the recorded melting point for `Cc1cc(OCc2ccccc2)cc(NC(=O)OC(C)C)c1C(=O)O` , which is 137 to 139 °C

Kindly note the recorded melting point for `CCCCCN1CCN(c2nc(C)c(C(=O)NCc3cccnc3)s2)C1=O` , which is 102 to 103 °C

Kindly note the recorded melting point for `Nc1ccccc1NS(=O)(=O)c1cc(C(=O)O)cc(NCc2ccccc2)c1Oc1ccccc1` , which is 113 to 116 °C

Kindly note the recorded melting point for `CCCCNc1cc(C(=O)O)cc(S(N)(=O)=O)c1Nc1ccccc1` , which is 230 to 231 °C

Kindly note the recorded melting point for N[C@@]1(C(=O)O)C[C@H](NC(=O)Nc2c(Cl)cccc2Cl)[C@H]2[C@H](C(=O)O)[C@H]21 (relative stereo) , which is > 250 °C

Kindly note the recorded melting point for `CCCCCCCCCCCCCCCCSC(=O)Nc1ccc(NC(=O)NS(=O)(=O)c2ccc(OC)cc2)cc1` , which is 197 °C

Kindly note the recorded melting point for CCCC1=C(C(=O)OCC)C(c2cccc(OC)c2OC)c2c[nH]nc2N1 (configuration not stated) , which is 205 to 206 °C

Kindly note the recorded melting point for `O=c1cc(-c2ccccc2)cc[nH]1` , which is 226 to 230 °C

Kindly note the recorded melting point for `CC(C)Oc1ccc(C=C2CCn3c2nc2cc(NC(=O)C(=O)O)ccc2c3=O)cc1` , which is 225 to 229 °C

Kindly note the recorded melting point for `O=C(O)Cn1c(=O)[nH][nH]c1=O` , which is 220 to 223 °C

Kindly note the recorded melting point for Cc1cc(COc2cccc3c2CN(C2CCC(=O)NC2=O)C3=O)on1 (configuration not stated) , which is 278 to 280 °C

Kindly note the recorded melting point for `CCC(C)(C)Nc1c(NCc2ccc(C)c(Cl)c2)c(=O)c1=O` , which is 261 to 263 °C

Kindly note the recorded melting point for `CCCS(=O)(=O)NCCCCn1c(=O)c2c(C)nc3cccc1n32` , which is 150 to 151 °C

Kindly note the recorded melting point for `Cc1cccc(NC(=O)NCC(=O)N(CC(=O)OC(C)(C)C)c2ccc([N+](=O)[O-])cc2)c1` , which is 152 °C

Kindly note the recorded melting point for `CC(C)CCOc1ccc(Cl)c2c(=O)c3ccccc3sc12` , which is 96 to 97 °C

Kindly note the recorded melting point for `CC(=O)NC(CCc1ccccc1)(COC(C)=O)COC(C)=O` , which is 116 to 117 °C

Kindly note the recorded melting point for `Cc1cc(N(C)C)nc2ccc(C=O)cc12` , which is 96 to 99 °C

Kindly note the recorded melting point for `CCc1n[nH]c(C(N)=O)c1NC(=O)c1cc(S(C)(=O)=O)ccc1OCC(C)C` , which is 154 to 162 °C

Kindly note the recorded melting point for CC(C)CC(N)C(=O)NC(=O)N(CCCl)N=O (racemic) , which is 82 to 84 °C

Kindly note the recorded melting point for `N#Cc1ccc(OCc2ccc(Cl)c(Cl)c2)cc1` , which is 222 to 223 °C

Kindly note the recorded melting point for `O=c1nc(-c2ccccn2)sc2ccc(F)cc12` , which is 240 °C

Kindly note the recorded melting point for `CN(C)c1ccc(Cl)cc1[N+](=O)[O-]` , which is 54 to 55 °C

Kindly note the recorded melting point for `C[C@@H](CN)CCC[C@@H](C)[C@H]1CC[C@H]2[C@@H]3CC=C4C[C@@H](O)CC[C@]4(C)[C@H]3CC[C@]12C` , which is 150 to 152 °C

Kindly note the recorded melting point for `Cc1ccc([N+](=O)[O-])cc1-c1cn(C)cc(-c2ccccc2)c1=O` , which is 185 to 187 °C

Kindly note the recorded melting point for `CCOc1ncc(SC)cc1C(=O)O` , which is 78 to 92 °C

Kindly note the recorded melting point for `CC(C)Oc1nc(-c2ccc(=O)n(C(C)C)n2)c(-c2ccccc2)nc1N` , which is 198 to 200 °C

Kindly note the recorded melting point for `O=C(c1ccco1)n1sc2ccccc2c1=O` , which is 157 to 161 °C

Kindly note the recorded melting point for `CCCOc1ccc(S(=O)(=O)N2CCN(CC)CC2)cc1-c1nc2cc3ncn(Cc4ccc(F)cc4)c3cc2c(=O)[nH]1` , which is 155 to 158 °C

###

Kindly state melting point for each of the entries shown.

Kindly note the recorded melting point for `COc1ccc(Cc2cnc(N)nc2N)cc1OCc1ccccc1` , which is 210 to 212 °C

Kindly note the recorded melting point for NCC1Cc2cc(C(F)(F)F)cc(-c3cccc(F)c3)c2O1 (stereo unspecified) , which is > 250 °C

Kindly note the recorded melting point for `CN1CCN(c2cc(Cl)cc3c2c(=O)n(Cc2cccc(Cl)c2)c(=O)n3Cc2ccccc2)CC1` , which is 165 to 169 °C

Kindly note the recorded melting point for COC(=O)[C@@](C#N)(Cc1ccccn1)[C@H](c1ccccc1OC)c1cccc2ccccc12 (relative stereo) , which is 194 to 196 °C

Kindly note the recorded melting point for `O=C(c1cccnc1)N1CCC(c2ccccc2Cl)=N1` , which is 115 to 116 °C

Kindly note the recorded melting point for `CC(=O)Nc1cccc2c1C(=O)c1c-2n[nH]c1-c1ccncc1` , which is > 300 °C

Kindly note the recorded melting point for `CNc1c(NCCNCc2ccc(CN3CCCCC3)o2)c(=O)c1=O` , which is 145 to 147 °C

Kindly note the recorded melting point for `CCOC(=O)CS(=O)(=O)c1cc(NS(=O)(=O)c2cccs2)c2ccccc2c1O` , which is 154 to 156 °C

Kindly note the recorded melting point for `CCCOc1ccccc1-c1nc2nnc(OC)nc2c(=O)[nH]1` , which is 221 to 222 °C

Kindly note the recorded melting point for `O=C(NC(=O)c1c(F)cccc1F)Nc1ccc(SC(F)(F)C(F)F)cc1F` , which is 177 to 179 °C

Kindly note the recorded melting point for `Fc1ccc2nc(Cl)ccc2c1` , which is 99 to 101 °C

###

Kindly state melting point for each of the entries shown.

Kindly note the recorded melting point for `Cc1csc2nc(N3CCC(C(=O)O)CC3)nc(NCc3ccc(F)cc3)c12` , which is 279 °C

Kindly note the recorded melting point for `CC(=O)NC[C@H]1CN(c2ccc(N3CCN(C(=O)CCC(=O)c4ccc(C(N)=O)cc4)CC3)c(F)c2)C(=O)O1` , which is > 250 °C

Kindly note the recorded melting point for Nc1nc(NCCNCC(O)COc2ccccc2)c2[nH]cnc2n1 (centres undefined) , which is 169 to 171 °C

Kindly note the recorded melting point for `CC(=O)c1ccc(Nc2ccccc2C(C)=C(Cl)Cl)cc1` , which is 81 to 82 °C

###

Kindly state melting point for each of the entries shown.

Kindly note the recorded melting point for `CC(C)Sc1cc(C(C)(C)C)c(O)c(C(C)(C)C)c1` , which is 80 to 82 °C

Kindly note the recorded melting point for `COc1ccc(-c2cc3ccccc3[nH]2)cc1NCc1ccc([N+](=O)[O-])c(O)c1` , which is 134 to 135 °C

Kindly note the recorded melting point for `N#Cc1ccc(Cn2cncn2)c(-c2ccc(O)c(Cl)c2)c1` , which is 243 to 245 °C

Kindly note the recorded melting point for CC(C)(C)OC(=O)N(C(=O)OC(C)(C)C)C(Cc1c[nH]cn1)C(=O)OCc1ccccc1 (stereo not drawn) , which is 97 to 99.5 °C

Kindly note the recorded melting point for `OC(CCc1c[nH]cn1)(c1ccccc1)c1ccccc1` , which is 189 to 191 °C

Kindly note the recorded melting point for `CCNC(=O)[C@H](C)C[C@H](O)[C@H](CC1CCCCC1)NC(=O)[C@H](Cc1cscn1)NC(=O)[C@@H](CC(=O)N(C)Cc1ccccc1)Cc1ccccc1` , which is 148 to 150 °C

Kindly note the recorded melting point for `Cc1cc(-n2ccnc2)c2cccc(OCc3c(Cl)ccc(S(=O)(=O)N4CCC[C@H]4C(=O)N4CCN(C(=O)OC(C)(C)C)CC4)c3Cl)c2n1` , which is 98 °C

Kindly note the recorded melting point for `COc1cc(O)c(CC=C(C)C)c(O)c1C(=O)C=Cc1ccc(O)cc1` , which is 172 °C

Kindly note the recorded melting point for `Cc1cc2cc(CN3CCC(CC(=O)N(C)C)CC3)cnc2cc1NC(=O)c1ccc(-c2ccc(F)cc2)cc1` , which is 219 °C

Kindly note the recorded melting point for Cc1c(NC(=O)CC(C)(C)C)cc2c(c1C)OC(C)(C)C2(O)c1cccc(C(C)C)c1 (stereo not drawn) , which is 136 to 137 °C

Kindly note the recorded melting point for CC(C)C(O)(CCc1ccc(OCc2ccccc2)cc1)CC(=O)O (stereo not drawn) , which is 97 to 98 °C

Kindly note the recorded melting point for `CCc1oc2ccc(C)cc2c1C(=O)c1ccc(Cl)c(S(N)(=O)=O)c1` , which is 147 to 150 °C

Kindly note the recorded melting point for `CCCc1cnc2c(c1)C(=O)OC2=O` , which is 42 to 44 °C
